// provenance: patent US20090298894A1

In this section we review reported EC50 values for a set of compounds.
target_or_system: human S1P1 (Homo sapiens)
Sequence (P21453 whole entry): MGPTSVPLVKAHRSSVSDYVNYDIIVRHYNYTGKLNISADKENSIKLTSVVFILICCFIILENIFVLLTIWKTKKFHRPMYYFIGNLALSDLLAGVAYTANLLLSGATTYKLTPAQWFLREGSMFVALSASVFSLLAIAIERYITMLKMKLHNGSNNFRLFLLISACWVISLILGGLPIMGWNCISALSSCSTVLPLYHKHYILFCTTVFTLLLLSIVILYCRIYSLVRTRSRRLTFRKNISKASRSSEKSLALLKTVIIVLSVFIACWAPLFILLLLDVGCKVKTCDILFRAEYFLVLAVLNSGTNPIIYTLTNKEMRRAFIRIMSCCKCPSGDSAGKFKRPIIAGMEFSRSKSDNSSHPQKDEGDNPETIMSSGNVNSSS
method: 35S-GTPγS binding assay using a membrane prepared from CHO cells which stably express S1P1 receptor
condition_description: CHO cell membrane fraction stably expressing human S1P1, read-out: EC50 (concentration of agonist required to give 50% of its own maximum increase ratio), human S1P1

These solved cases illustrate the format of a correct answer.
Cc1cc(-c2nc(-c3ccc4c(c3)CCC4N[C@H]3C[C@H](C(=O)O)C3)no2)ccc1-c1ccccc1C#N (stereo partly shown)	< 10 nM
Cc1cc(-c2nc(-c3cc(C)c4c(c3)CN([C@H]3C[C@H](C(=O)O)C3)C4)no2)ccc1-c1ccccc1C(F)(F)F	< 10 nM
Cc1cc(-c2nc(-c3ccc4c(c3)CN([C@H]3C[C@H](C(=O)O)C3)C4)no2)ccc1-c1cc(F)cc(F)c1F	< 10 nM
Cc1cc(-c2nc(-c3ccc4c(c3)CCC4N[C@H]3C[C@H](C(=O)O)C3)no2)ccc1-c1ccccc1Cl (stereo partly shown)	< 10 nM
Cc1cc(-c2nc(-c3ccc4c(c3)CCC4N[C@H]3C[C@H](C(=O)O)C3)no2)c(F)cc1-c1ccccc1F (stereo partly shown)	< 10 nM

Request: Name the recorded EC50 for Cc1cc(-c2nc(-c3ccc4c(c3)CCC4N[C@H]3C[C@H](C(=O)O)C3)no2)cc(C)c1-c1ccccc1 (stereo partly shown) .
Result: < 10 nM

Request: Now the same for O=C(O)C1CC(NC2CCc3cc(-c4noc(-c5ccc(-c6ccccc6F)c(Cl)c5)n4)ccc32)C1 (stereo not shown)
Result: < 10 nM
